- Study system: Bovine cardiac myosin (Bos taurus (Bovine))
- Sequence (Q9BE39 whole entry): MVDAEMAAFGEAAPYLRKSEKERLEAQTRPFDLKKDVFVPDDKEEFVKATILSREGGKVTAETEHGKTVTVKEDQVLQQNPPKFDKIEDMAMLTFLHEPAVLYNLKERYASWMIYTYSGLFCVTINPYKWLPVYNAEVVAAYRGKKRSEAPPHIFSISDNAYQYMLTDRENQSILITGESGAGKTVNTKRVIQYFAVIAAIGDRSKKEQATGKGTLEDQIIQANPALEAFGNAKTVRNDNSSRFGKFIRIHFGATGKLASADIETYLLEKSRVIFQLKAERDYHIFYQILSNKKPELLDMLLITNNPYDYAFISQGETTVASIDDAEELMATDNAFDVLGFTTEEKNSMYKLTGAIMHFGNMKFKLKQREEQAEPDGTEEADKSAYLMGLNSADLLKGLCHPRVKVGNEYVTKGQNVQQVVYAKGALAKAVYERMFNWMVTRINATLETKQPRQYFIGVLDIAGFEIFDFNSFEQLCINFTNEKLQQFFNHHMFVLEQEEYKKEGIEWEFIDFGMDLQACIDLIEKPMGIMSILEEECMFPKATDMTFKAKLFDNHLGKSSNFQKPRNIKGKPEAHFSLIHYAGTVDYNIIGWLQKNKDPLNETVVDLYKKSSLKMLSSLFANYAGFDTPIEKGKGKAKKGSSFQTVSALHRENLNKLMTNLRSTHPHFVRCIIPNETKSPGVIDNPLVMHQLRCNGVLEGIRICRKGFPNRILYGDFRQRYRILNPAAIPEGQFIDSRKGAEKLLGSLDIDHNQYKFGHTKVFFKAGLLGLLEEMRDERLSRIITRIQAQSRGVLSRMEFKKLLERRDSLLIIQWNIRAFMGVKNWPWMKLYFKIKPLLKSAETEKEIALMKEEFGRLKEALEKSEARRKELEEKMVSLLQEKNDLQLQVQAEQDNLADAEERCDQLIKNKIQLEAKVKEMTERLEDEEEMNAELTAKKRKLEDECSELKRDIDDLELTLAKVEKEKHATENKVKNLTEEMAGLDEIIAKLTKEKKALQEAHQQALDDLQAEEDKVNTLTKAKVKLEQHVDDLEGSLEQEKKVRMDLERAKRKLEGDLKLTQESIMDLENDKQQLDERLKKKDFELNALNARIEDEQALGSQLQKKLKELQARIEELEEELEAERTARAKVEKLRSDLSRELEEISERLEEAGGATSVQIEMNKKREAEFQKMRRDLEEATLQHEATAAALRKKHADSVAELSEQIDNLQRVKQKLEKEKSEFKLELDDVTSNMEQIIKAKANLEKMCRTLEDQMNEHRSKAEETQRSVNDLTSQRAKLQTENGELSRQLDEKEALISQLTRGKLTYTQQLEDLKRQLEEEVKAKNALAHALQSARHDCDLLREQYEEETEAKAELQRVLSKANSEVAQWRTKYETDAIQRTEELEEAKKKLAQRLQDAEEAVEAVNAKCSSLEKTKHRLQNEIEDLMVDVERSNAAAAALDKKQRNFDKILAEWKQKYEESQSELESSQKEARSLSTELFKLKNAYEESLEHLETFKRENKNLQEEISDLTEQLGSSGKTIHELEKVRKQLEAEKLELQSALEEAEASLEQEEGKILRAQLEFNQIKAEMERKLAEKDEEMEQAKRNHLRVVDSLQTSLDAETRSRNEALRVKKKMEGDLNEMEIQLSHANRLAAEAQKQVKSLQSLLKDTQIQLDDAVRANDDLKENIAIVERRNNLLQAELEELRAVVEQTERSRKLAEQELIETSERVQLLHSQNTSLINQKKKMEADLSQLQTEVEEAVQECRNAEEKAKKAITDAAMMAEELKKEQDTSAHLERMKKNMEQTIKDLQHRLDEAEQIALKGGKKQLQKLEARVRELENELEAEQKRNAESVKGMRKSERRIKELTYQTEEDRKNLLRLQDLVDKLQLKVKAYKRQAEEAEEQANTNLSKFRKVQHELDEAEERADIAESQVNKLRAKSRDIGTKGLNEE
- Sequence (P85100 whole entry partner): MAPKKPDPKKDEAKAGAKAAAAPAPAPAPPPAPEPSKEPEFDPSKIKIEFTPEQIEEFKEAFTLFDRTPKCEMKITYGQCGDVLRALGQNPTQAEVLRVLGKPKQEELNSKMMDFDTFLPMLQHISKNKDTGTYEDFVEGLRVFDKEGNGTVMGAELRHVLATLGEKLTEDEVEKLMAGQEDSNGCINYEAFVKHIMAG
- Sequence (Q3SZE5 whole entry partner): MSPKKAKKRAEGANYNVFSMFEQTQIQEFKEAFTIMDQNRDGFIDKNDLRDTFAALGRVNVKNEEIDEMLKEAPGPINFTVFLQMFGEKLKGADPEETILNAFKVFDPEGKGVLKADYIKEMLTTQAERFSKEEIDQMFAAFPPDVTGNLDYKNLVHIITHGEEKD
- Assay method text: Cardiac muscle myosin II actin-activated ATPase assay (NADH-coupled)
- Format: biochemical
- Parameters: key: NMII-sel: no Ki value for cardiac myosin II could be determined; the compounds had no detectable inhibitory properties versus the cardiac myosin II
- Cond: cardiac myosin II Ki over nonmuscle myosin II EC50
Property: Ratio CMMII:NMII Ki/EC50

Some entries whose results are on file:
Cc1cc2cc(N3CC[C@@]4(O)C(=O)c5cc(F)c(C)cc5N=C34)ccc2o1 | NMII-sel
Cc1cccc(N2CC[C@@]3(O)C(=O)c4cc(C)c(C(F)(F)F)cc4N=C23)c1 | NMII-sel
Cc1ccc2c(c1)C(=O)[C@]1(O)CCN(c3ccc4occc4c3)C1=N2 | NMII-sel
Cc1cc2c(cc1F)C(=O)[C@]1(O)CCN(c3ccc4ncccc4c3)C1=N2 | NMII-sel
Cc1ccc2c(c1)C(=O)[C@]1(O)CCN(c3ccc4sccc4c3)C1=N2 | NMII-sel
O=C1c2cc(Cl)ccc2N=C2N(c3ccc4ccsc4c3)CC[C@@]12O | NMII-sel
COc1cc(N2CC[C@@]3(O)C(=O)c4cc(C(F)(F)F)ccc4N=C23)ccn1 | NMII-sel

Now consider the entry below.
Qu. Field request: Ratio CMMII:NMII Ki/EC50 | item: Cc1ccc2c(c1)C(=O)[C@]1(O)CCN(c3ccc(C)c(C)c3)C1=N2
Ans. NMII-sel
